- test: Dog study of lumefantrine-SDF and KAF156 alone and co-dosed (Example 6)
- Assay type: in vivo
- applied-conditions: dog, in vivo, po, 100 mg, Phase 5 (Mono), dog; read-out: AUClast, Mean
observed-property: AUC(0-t) (ng·h/mL)
Give your result in ng·h/mL as a bare value.

Q: Reported AUC(0-t) for CC1(C)c2nc(-c3ccc(F)cc3)c(Nc3ccc(F)cc3)n2CCN1C(=O)CN : what is it?
Ans: 11600

---

- test: Dog study of lumefantrine-SDF and KAF156 alone and co-dosed (Example 6)
- Format: in vivo
- applied-conditions: dog, in vivo, po, 100 mg, Phase 5 (Mono)
observed-property: Tmax (h)
Give your result in h as a bare value.

Q: Reported Tmax for CC1(C)c2nc(-c3ccc(F)cc3)c(Nc3ccc(F)cc3)n2CCN1C(=O)CN : what is it?
Ans: 1

---

- test: Dog study of lumefantrine-SDF and KAF156 alone and co-dosed (Example 6)
- Type: in vivo
- applied-conditions: dog, in vivo, po, 100 mg, Phase 2 (Combo)
- Experimental: The study design is described in the table below. To stimulate gastric secretion, each animal (dog) received a single 6-μg/kg intramuscular injection of pentagastrin approximatively 60 minutes prior to test article administration. Washout between each treatment was approximatively 7-8 days. [table]
observed-property: Cmax (ng/mL)
Give your result in ng/mL as a bare value.

Q: Reported Cmax for CC1(C)c2nc(-c3ccc(F)cc3)c(Nc3ccc(F)cc3)n2CCN1C(=O)CN : what is it?
Ans: 1200

---

- test: Dog study of lumefantrine-SDF and KAF156 alone and co-dosed (Example 6)
- Format: in vivo
- applied-conditions: dog, in vivo, po, 100 mg, Phase 2 (Combo), dog; read-out: AUClast, Mean
observed-property: AUC(0-t) (ng·h/mL)
Give your result in ng·h/mL as a bare value.

Q: Reported AUC(0-t) for CC1(C)c2nc(-c3ccc(F)cc3)c(Nc3ccc(F)cc3)n2CCN1C(=O)CN : what is it?
Ans: 36700

---

- test: Dog study of lumefantrine-SDF and KAF156 alone and co-dosed (Example 6)
- Format: in vivo
- applied-conditions: dog, in vivo, po, 100 mg, Phase 2 (Combo), with Lumefantrine-SDF sachet, dog; read-out: T½, Mean (converted)
observed-property: half-life (h)
Give your result in h as a bare value.

Q: Reported half-life for CC1(C)c2nc(-c3ccc(F)cc3)c(Nc3ccc(F)cc3)n2CCN1C(=O)CN : what is it?
Ans: 31

---

- test: Dog study of lumefantrine-SDF and KAF156 alone and co-dosed (Example 6)
- Assay type: in vivo
- applied-conditions: dog, in vivo, po, 100 mg, Phase 5 (Mono), dog; read-out: AUCinf, Mean
- Description: The study design is described in the table below. To stimulate gastric secretion, each animal (dog) received a single 6-μg/kg intramuscular injection of pentagastrin approximatively 60 minutes prior to test article administration. Washout between each treatment was approximatively 7-8 days. [table]
observed-property: AUC(0-inf) (ng·h/mL)
Give your result in ng·h/mL as a bare value.

Q: Reported AUC(0-inf) for CC1(C)c2nc(-c3ccc(F)cc3)c(Nc3ccc(F)cc3)n2CCN1C(=O)CN : what is it?
Ans: 14400

---

- test: Dog study of lumefantrine-SDF and KAF156 alone and co-dosed (Example 6)
- Format: in vivo
- applied-conditions: dog, in vivo, po, 100 mg, Phase 2 (Combo), dog; read-out: AUCinf, Mean
observed-property: AUC(0-inf) (ng·h/mL)
Give your result in ng·h/mL as a bare value.

Q: Reported AUC(0-inf) for CC1(C)c2nc(-c3ccc(F)cc3)c(Nc3ccc(F)cc3)n2CCN1C(=O)CN [KAF156] : what is it?
Ans: 45400
